- Target desc: ATR kinase (Homo sapiens)
- Construct: endogenous in cells; host or cells: HT29 cells (ECACC #85061109)
- Sequence (Q13535 whole entry): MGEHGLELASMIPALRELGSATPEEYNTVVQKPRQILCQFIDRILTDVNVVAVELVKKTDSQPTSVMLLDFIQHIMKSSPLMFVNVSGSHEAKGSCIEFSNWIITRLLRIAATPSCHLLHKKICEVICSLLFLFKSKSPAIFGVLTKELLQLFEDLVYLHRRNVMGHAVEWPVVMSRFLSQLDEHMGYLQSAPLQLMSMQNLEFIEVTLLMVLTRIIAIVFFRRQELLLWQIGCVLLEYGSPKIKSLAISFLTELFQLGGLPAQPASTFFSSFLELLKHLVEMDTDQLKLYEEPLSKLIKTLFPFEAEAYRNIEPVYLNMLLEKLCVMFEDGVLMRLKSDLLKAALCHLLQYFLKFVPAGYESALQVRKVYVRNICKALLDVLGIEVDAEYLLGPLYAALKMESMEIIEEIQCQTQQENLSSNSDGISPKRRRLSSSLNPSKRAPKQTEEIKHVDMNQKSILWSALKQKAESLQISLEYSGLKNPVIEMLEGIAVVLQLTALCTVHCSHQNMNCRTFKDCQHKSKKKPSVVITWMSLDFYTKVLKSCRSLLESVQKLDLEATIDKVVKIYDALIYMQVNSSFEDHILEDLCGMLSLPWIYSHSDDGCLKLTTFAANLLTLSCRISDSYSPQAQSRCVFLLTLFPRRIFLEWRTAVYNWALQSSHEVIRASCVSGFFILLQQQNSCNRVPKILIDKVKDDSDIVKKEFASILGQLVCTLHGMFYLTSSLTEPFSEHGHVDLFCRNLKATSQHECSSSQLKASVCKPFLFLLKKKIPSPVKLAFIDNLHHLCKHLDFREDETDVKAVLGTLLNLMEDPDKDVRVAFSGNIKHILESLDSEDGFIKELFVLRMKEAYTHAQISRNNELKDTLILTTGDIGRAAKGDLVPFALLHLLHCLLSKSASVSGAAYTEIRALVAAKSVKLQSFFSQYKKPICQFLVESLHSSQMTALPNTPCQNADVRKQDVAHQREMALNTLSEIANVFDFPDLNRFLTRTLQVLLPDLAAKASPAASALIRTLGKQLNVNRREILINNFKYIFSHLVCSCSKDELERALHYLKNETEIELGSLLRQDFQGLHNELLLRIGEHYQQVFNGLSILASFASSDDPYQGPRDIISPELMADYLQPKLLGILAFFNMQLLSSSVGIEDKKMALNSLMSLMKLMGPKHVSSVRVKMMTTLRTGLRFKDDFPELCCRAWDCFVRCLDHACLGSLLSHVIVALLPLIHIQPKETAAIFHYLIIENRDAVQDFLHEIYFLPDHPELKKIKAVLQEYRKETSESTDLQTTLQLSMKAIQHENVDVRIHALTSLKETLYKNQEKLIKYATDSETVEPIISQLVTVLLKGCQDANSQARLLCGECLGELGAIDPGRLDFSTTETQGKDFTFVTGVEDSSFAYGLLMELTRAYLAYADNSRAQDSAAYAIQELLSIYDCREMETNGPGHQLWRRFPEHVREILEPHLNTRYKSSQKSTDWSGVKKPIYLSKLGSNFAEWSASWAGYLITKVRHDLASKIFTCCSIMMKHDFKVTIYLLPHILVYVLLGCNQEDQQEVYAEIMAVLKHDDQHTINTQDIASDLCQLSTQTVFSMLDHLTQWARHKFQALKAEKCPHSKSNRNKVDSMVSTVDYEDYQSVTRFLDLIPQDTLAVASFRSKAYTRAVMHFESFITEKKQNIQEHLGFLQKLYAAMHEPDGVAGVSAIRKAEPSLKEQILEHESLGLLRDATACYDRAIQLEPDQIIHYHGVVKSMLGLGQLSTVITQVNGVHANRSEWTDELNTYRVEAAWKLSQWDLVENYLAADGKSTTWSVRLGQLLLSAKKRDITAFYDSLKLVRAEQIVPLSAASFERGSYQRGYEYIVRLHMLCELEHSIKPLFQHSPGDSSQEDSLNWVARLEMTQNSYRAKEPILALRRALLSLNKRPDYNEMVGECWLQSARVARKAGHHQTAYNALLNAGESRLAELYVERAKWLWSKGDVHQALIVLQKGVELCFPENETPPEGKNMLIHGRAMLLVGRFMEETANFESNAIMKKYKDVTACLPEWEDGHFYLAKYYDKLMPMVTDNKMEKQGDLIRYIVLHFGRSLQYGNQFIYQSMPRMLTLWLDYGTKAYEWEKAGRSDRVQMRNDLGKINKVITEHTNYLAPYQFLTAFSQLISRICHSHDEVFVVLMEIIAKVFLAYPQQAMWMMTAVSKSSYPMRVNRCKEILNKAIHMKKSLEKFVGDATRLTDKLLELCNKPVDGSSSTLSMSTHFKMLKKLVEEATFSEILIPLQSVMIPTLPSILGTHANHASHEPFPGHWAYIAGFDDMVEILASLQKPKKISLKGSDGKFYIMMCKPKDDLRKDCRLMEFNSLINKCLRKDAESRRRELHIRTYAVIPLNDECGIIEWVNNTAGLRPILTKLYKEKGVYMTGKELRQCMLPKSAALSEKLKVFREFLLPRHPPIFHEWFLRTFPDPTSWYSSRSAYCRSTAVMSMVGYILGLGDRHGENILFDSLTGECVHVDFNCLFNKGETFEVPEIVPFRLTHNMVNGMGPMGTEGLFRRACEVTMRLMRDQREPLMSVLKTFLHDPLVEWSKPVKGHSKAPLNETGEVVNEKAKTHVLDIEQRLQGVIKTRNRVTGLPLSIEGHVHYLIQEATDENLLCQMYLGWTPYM
- Sequence (Q8WXE1 whole entry partner): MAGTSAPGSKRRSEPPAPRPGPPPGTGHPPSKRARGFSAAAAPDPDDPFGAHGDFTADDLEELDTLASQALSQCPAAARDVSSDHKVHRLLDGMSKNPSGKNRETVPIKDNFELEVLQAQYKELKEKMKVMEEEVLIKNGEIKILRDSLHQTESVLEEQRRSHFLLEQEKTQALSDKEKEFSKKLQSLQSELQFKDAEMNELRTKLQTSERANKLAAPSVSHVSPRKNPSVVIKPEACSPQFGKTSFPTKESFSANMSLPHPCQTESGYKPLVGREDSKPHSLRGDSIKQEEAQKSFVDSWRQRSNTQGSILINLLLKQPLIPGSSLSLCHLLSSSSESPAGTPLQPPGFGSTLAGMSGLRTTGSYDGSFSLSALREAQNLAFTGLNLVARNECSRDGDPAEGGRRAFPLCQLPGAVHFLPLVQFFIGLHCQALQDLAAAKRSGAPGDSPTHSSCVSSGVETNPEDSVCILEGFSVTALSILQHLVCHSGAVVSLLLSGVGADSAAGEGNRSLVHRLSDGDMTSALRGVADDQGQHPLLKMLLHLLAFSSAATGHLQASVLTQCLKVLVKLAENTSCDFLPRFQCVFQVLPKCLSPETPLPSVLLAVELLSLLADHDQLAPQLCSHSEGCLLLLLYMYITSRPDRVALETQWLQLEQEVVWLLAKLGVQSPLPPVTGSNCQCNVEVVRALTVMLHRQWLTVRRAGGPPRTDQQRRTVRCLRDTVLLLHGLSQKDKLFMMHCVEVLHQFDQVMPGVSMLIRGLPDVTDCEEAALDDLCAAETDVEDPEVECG
- Protocol notes: Assay b): ATR cellular potency (pChk1 Ser345 in HT29 cells after 4NQO)
- Format: cell-based
- Measurement context: HT29 cells, 4NQO, pChk1 Ser345; Table 2; read-out: Assay b) ATR Cell IC50
pIC50: −log10 of the molar value.
Endpoint: pIC50

1: CN(C)CCOc1ccc(-c2cc3c(cc2F)ncc2c3n(C3CCOCC3)c(=O)n2C)cc1 [Example 56]
2: CO[C@@H]1CCC[C@H](n2c(=O)n(C)c3cnc4ccc(-c5ccc(OCCCN6CCCC6)cc5)cc4c32)C1 (relative stereo) [Example 38]
Lookup: Lower value of pIC50 belongs to which: 1 or 2 ? API: response body contains the label of the selected item.
Found: 2
(2: 4.72, 1: 5.01)
